Conditions: 306.15 K; 101.33 kPa; Liquid; Vibrating tube method

# COMPOUND, mass density, kg/m3
data = [
    ("CCCCCCCCOS(=O)(=O)[O-].CCn1cc[n+](C)c1 [1-ethyl-3-methylimidazolium octyl sulfate]", 1090.33),
    ("CCn1cc[n+](C)c1.O=S(=O)([O-])O [1-ethyl-3-methylimidazolium hydrogen sulfate]", 1360.82),
    ("CCCCOS(=O)(=O)[O-].CC[n+]1ccn(C)c1 [3-ethyl-1-methylimidazolium butyl sulfate]", 1170.78),
    ("CCn1cc[n+](C)c1.COS(=O)(=O)[O-] [1-ethyl-3-methylimidazolium methylsulfate]", 1280.52),
    ("CCCCCCOS(=O)(=O)[O-].CC[n+]1ccn(C)c1 [3-ethyl-1-methyl-1H-imidazolium hexyl sulfate]", 1125.04),
]
